# credit: patent US20160251440A1

# maps each entry to its pEC50
- TARGET_OR_SYSTEM: T1, human IL-3Rα (CD123), cell-expressed (human, UniProt P26951 19-378)
- T1 construct: whole, on cells; also called IL-3Ra; Hek-IL-3Rα
- T1 sequence (P26951 19-378): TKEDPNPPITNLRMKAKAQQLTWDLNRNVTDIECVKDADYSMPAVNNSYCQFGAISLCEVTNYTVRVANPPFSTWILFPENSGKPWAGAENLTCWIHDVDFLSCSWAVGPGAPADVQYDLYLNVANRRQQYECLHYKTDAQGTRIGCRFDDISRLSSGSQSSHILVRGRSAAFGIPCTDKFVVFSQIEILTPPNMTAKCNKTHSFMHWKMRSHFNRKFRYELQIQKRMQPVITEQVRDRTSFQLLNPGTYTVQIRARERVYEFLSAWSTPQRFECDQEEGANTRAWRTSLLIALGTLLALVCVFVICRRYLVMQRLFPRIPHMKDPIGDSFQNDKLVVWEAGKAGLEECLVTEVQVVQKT
- EXPERIMENT_SUMMARY: flow cytometry on Molm-13 cells; EC50(M) printed in the legend box beside the curves
pEC50: −log10 of the molar value.
MEASURE_NAME: pEC50

binder="55A01 (VHH, also called CD123#2; A0110055A01) VHH: EVQLVESGGGSVQAGGSLRLSCTTSGRALNMYVMGWFRQAPGNEREFVAATSSSGGSTSYPDSVKGRFTISRDNAKNTVYLQMNSLKPEDTAAYRCAASPYVSTPTMNILEEYRYWGLGTQVTVSS" measure_name=pEC50 reported=7.89
binder="55B04 (VHH) VHH: EVQLVESGGGLVQPGGSLRLSCAASGINFRFNSMGWWRRRAPGKEREWVAAITSGDITNYRDSVRGRFTISRDNVKNTVYLQMNTLKLEDTAVYYCNTFPPIADYWGLGTQVTVSS" measure_name=pEC50 reported=5.89
binder="50F07 (VHH) VHH: EVQLVESGGGLVQPGGSLRLSCTGSGSTFSINAMGWYRQAPGKQRELVAAITSGGRTNYADSVKGRFTISRDNSKNTVYLQMNSLRPEDTAVYYCNARISAGTAFWLWSDYEYWGLGTLVTVSS" measure_name=pEC50 reported=7.18
